- experimental.system: T1, SpPot1 (Schizosaccharomyces pombe, UniProt O13988 1-555)
- T1 sequence: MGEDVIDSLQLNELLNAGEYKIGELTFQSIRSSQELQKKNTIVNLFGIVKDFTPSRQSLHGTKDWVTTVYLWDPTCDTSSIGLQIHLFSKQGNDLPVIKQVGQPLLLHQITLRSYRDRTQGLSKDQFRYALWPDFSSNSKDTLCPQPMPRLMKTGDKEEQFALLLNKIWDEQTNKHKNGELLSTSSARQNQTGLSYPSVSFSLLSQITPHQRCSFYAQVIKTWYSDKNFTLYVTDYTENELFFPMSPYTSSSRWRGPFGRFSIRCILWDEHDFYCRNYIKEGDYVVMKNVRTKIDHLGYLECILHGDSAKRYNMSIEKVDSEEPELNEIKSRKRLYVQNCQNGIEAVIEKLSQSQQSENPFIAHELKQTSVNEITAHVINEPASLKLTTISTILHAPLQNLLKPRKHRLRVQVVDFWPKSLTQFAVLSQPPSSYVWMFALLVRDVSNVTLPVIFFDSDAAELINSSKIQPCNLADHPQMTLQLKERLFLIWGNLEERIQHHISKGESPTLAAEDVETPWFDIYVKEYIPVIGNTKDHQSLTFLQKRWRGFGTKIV
- test.method.notes: filter binding
experimental.readout: pKd
As a rule, pKd stands for the negative log10 of the concentration, concentration in M.

Task: Would you mind telling me what pKd value was observed for GGTTACGGTTAC (ssDNA) [12mer] ?
Result: 9.89
